MEASUREMENT_TARGET: NADPH oxidase 4 (Homo sapiens) (UniProt Q9NPH5)
Sequence (Q9NPH5 whole entry, looked up): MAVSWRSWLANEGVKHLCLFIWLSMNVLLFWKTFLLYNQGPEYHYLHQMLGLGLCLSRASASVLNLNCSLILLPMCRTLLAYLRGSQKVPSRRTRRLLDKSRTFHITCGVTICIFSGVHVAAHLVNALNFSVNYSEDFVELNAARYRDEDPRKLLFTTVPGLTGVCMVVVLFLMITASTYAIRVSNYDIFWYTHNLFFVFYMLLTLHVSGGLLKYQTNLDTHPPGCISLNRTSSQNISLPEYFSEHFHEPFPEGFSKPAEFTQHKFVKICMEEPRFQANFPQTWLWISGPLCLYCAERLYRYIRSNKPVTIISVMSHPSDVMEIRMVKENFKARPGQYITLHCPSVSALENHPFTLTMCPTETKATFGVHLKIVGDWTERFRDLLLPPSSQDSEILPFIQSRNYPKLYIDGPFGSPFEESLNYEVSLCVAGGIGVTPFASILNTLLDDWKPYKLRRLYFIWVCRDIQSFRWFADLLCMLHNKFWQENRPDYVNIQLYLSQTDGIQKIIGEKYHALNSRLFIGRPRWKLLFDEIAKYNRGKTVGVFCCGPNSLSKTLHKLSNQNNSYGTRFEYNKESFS
EXPERIMENT_DESCRIPTION: NOX4-dependent H2O2 signal modulators, primary screen, NOX inhibitor project, cell-based, HEK293-NOX4, tetracycline-induced, Amplex Red fluorescence (AID 1160)
STATED_CONDITIONS: 45 min, higher = more signal, called active from +8 up or from −8 down
Activity calls are given as the source filed them.
QUANTITY_KIND: z-score

Consider the worked cases shown below.
C=CCC(OC(C)=O)[C@@H]1[C@@H](N(Cc2ccc(-c3cccc(C(F)(F)F)c3)o2)C(=O)Cc2ccc(F)cc2)c2cc(OCCCO)ccc2N1C(=O)c1ccc2ccccc2c1 (stereo partly drawn) = 0.631 (inactive)
COc1ccc(C(O)C2C=CC3C(=O)N(C)C(=O)C3N2Nc2ccc([N+](=O)[O-])cc2[N+](=O)[O-])cc1OCc1ccccc1 (stereo not drawn) = 0.703 (inactive)
Cc1ccc(S[C@]2(C(=O)NCC(F)(F)F)CC(=O)N(C3CCCCC3)[C@@H]2c2ccc(CO)cc2)cc1 = 0.03 (inactive)
COc1ccc(C#Cc2ccc3c(c2)[C@]2(C(=O)N3)[C@H](C(=O)Nc3nc4ccccc4s3)[C@H]3C(=O)O[C@H](c4ccccc4)[C@H](c4ccccc4)N3[C@@H]2c2ccc(OCCO)cc2)cc1 = 0.0813 (inactive)

Lab note: each compound below needs its z-score filled in.
1. CCOC(=O)C[C@H]1[C@H](OC(=O)c2ccc(-c3ccccc3)cc2)[C@@H](NC(=O)c2ccc3ccccc3c2)c2cc(OCCCO)ccc2N1C(=O)c1ccccc1
2. COCCOC(=O)N1C(=O)[C@@]2(c3cc(C#CC4=CCCCC4)ccc31)[C@H](C(=O)N1CCc3cc(OC)c(OC)cc3C1)[C@H]1C(=O)O[C@H](c3ccccc3)[C@H](c3ccccc3)N1[C@@H]2c1ccc(O)cc1
3. COc1ccc(NN2C(C(O)c3ccc(OC)cc3)C=CC3C(=O)N(C4CCCCC4)C(=O)C32)cc1 (stereo not drawn)

["-1.62 (inactive)", "-0.0332 (inactive)", "-1.1 (inactive)"]

Lab note: each compound below needs its z-score filled in.
1. CCCCNC(=O)c1ccc(C#C[Si](C)(C)C)c(OC(C)=O)c1
2. COc1ccc(C#Cc2ccc3c(c2)[C@]2(C(=O)N3)[C@H](c3ccc(OCCO)cc3)N3[C@H](c4ccccc4)[C@H](c4ccccc4)OC(=O)[C@H]3[C@@H]2C(=O)O)cc1
3. CN(C)CCCC[C@@H]1NC(=O)[C@H]2C[C@@H](C(=O)O)[C@@H](c3cccc(OCCO)c3)N2C1=O
4. C=CCC(OC(C)=O)[C@@H]1[C@@H](N(Cc2ccc(-c3cccc(C(F)(F)F)c3)o2)C(=O)c2cccc3ccccc23)c2cc(OCCCO)ccc2N1C(=O)c1ccc2ccccc2n1 (stereo partly drawn)
5. COCCOC(=O)N1C(=O)[C@@]2(c3cc(C#CCC(C(=O)OC)C(=O)OC)ccc31)[C@H](C(N)=O)[C@H]1C(=O)O[C@H](c3ccccc3)[C@H](c3ccccc3)N1[C@@H]2c1ccc(OCCO)cc1
6. CO[C@H]1O[C@H](CO)[C@@H](OC(=O)Nc2ccc(C(F)(F)F)cc2)[C@H](OC(=O)Nc2ccccc2-c2ccccc2)[C@@H]1OC(=O)Nc1ccccc1-c1ccccc1

0.194 (inactive)
-1.55 (inactive)
-3.04 (inactive)
-1.17 (inactive)
1.24 (inactive)
-0.549 (inactive)

Entry source: PubChem BioAssay
